Ref: patent US20250027068

# target.system: pooled human IgG (human IgG1,2,3 and 4)
endpoint: Enzyme Activity Endpoint Assay: IgG

- protein: "PRT-454 (protein) MITSVWTKGVTPPTDFIKGEDVFHAPYKAGQGWYDITKAFDGGDDLLCGAATAGNMLHWWFDQNKDQIEAYLKEHPEKQKINFNGEQMFDVKEAIDTKDDQTNSELFNYFKEKAFPYLSTKHLGVFPDHVLDMFINGYRLSLTNHGPTPVKRQEKDPRGGIFDAVFGRGDQTKLLTSRHDFKEKTLNEISQLIKQELTEGKALALSHTYANVRINHVINLWGADFDAEGNLEAIYVTDSDSNASIGMKKYFVGVNSAGKVAISAKEIEDDNIGAQVLGLFTLSTGQKIWNKTNLEHHHHHH"
  value.reported: "94 ng/µL"
